# assay.text: Selectivity index, ratio of CC50 for human MT4 cells to EC50 for antiviral activity against HIV1 3B infected in human MT4 cells
# Format: toxicity, cell-based
# experimental.conditions: read-out: Ratio CC50/EC50
# selectivity ratio annotations
attribute.measured: selectivity ratio

- Cc1cn([C@H]2C[C@H](N=[N+]=[N-])[C@@H](CO)O2)c(=O)[nH]c1=O: > 397
- Cc1cc(C#N)cc(C)c1Oc1nc(Nc2ccc(C#N)cc2)nc(N)c1Br: > 1640
- Cc1cc(C#N)cc(C)c1Oc1nc(NC2CCN(CCN3CCOCC3)CC2)nc2c1COC2: 383
- Cc1cc(C#N)cc(C)c1Oc1nc(NC2CCN(CC(=O)N3CCOCC3)CC2)nc2c1COC2: 1240
- Cc1ccnc2c1NC(=O)c1cccnc1N2C1CC1: > 92
- COc1cc2nc(NC3CCN(CCN4CCOCC4)CC3)nc(Oc3c(C)cc(C#N)cc3C)c2cc1OC: 68
- Cc1cc(C#N)cc(C)c1Oc1ccnc(NC2CCN(CC(=O)N3CCOCC3)CC2)n1: 1020
- Cc1cc(C#N)cc(C)c1Oc1nc(NC2CCN(CCN3CCOCC3)CC2)nc2c1CCC2: 261
- Cc1cc(C#N)cc(C)c1Oc1nc(NC2CCN(CC(=O)N3CCOCC3)CC2)nc2ccoc12: 383
- Cc1cc(C#N)cc(C)c1Oc1nc(NC2CCN(CCN3CCOCC3)CC2)nc2sccc12: 579
- Cc1cc(C#N)cc(C)c1Oc1nc(NC2CCN(CCN3CCOCC3)CC2)nc2ccsc12: 423
- Cc1cc(C#N)cc(C)c1Oc1nc(NC2CCN(CC(=O)N3CCOCC3)CC2)nc2c1CSC2: 420
- Cc1cc(C#N)cc(C)c1Oc1nc(NC2CCN(CC(=O)N3CCOCC3)CC2)nc2cc(F)ccc12: 71
- Cc1cc(C#N)cc(C)c1Oc1nc(NC2CCN(CCN3CCOCC3)CC2)nc2c1CSC2: 164
- Cc1cc(C#N)cc(C)c1Oc1nc(NC2CCN(CCN3CCOCC3)CC2)nc2ccccc12: 52
- Cc1cc(C#N)cc(C)c1Oc1nc(NC2CCN(CC(=O)N3CCOCC3)CC2)nc2c1SCC2: 663
- Nc1ccn([C@@H]2CS[C@H](CO)O2)c(=O)n1: > 17
- Cc1cc(C#N)cc(C)c1Oc1nc(NC2CCN(CC(=O)N3CCOCC3)CC2)nc2scnc12: 919
- Cc1cc(C#N)cc(C)c1Oc1ccnc(NC2CCN(CCN3CCOCC3)CC2)n1: 219
